# assay system: human 5-HT7 receptor (Homo sapiens)
# test: Competition radioligand binding (orthosteric ligands ± Zn2+; Zn2+ titration curves)
# Set-up: The full-length human 5-HT7b receptor complementary DNA (cDNA)
# condition details: vs [3H]mesulergine at fixed concentration (≤K D); read-out: IC50 for inhibiting radioligand binding
pIC50: −log10 of the molar value.
measured quantity: pIC50

> print(dat)
                            compound  measured.quantity  test.result
1  [Cl-].[Cl-].[Zn+2] [Zn^2+, ZnCl2]              pIC50         3.62

* * *

# assay system: human 5-HT7 receptor (Homo sapiens, UniProt P34969)
# Sequence (P34969 1-432 limits assumed): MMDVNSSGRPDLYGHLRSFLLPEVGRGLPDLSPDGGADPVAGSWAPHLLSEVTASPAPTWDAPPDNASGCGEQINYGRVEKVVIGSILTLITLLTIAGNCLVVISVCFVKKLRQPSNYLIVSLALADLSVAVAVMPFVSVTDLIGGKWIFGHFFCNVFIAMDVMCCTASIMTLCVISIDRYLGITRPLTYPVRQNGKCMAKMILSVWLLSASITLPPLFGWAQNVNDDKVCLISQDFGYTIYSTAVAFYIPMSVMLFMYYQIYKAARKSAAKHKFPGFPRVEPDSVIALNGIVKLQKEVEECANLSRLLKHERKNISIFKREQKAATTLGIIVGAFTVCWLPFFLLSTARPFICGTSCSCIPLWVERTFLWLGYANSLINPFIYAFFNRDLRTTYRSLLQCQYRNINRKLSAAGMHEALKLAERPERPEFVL
# test: Competition radioligand binding (orthosteric ligands ± Zn2+; Zn2+ titration curves)
# Set-up: The full-length human 5-HT7b receptor complementary DNA (cDNA)
# condition details: vs [3H]5-CT at fixed concentration (≤K D); read-out: IC50 for inhibiting radioligand binding
measured quantity: IC50 (µM)

> print(dat)
                            molecule                              assay.system  test.result
1  [Cl-].[Cl-].[Zn+2] [Zn^2+, ZnCl2]  human 5-HT7 receptor (Homo sapiens, UniProt P34969)          346
